- Test system: S. aureus Newman;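 also: OD595 on entry to stationary phase over no-drug wells; at most 1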
- ASSAY_INFO: fitness (endpoint OD595 vs no drug) (fraction); higher = more growth
- EXPERIMENTAL_CONDITIONS: first compound 0.125 µg/mL; partner 0.0156 µg/mL
# Lookup of reported fitness keyed by entry
OBSERVED_PROPERTY: fitness

MOLECULE	OBSERVED
CC1(C)S[C@@H]2[C@H](NC(=O)[C@H](N)c3ccc(O)cc3)C(=O)N2[C@H]1C(=O)O [Amoxicillin] + Cc1onc(-c2ccccc2)c1C(=O)N[C@@H]1C(=O)N2[C@@H]1SC(C)(C)[C@@H]2C(=O)O [Oxacillin]	0.674
CCCCCCCCCC(=O)N[C@@H](Cc1c[nH]c2ccccc12)C(=O)N[C@H](CC(N)=O)C(=O)N[C@@H](CC(=O)O)C(=O)N[C@@H]1C(=O)NCC(=O)N[C@@H](CCCN)C(=O)N[C@@H](CC(=O)O)C(=O)N[C@H](C)C(=O)N[C@@H](CC(=O)O)C(=O)NCC(=O)N[C@H](CO)C(=O)N[C@@H]([C@H](C)CC(=O)O)C(=O)N[C@@H](CC(=O)c2ccccc2N)C(=O)O[C@@H]1C [Daptomycin] + CO[C@@]12[C@H](COC(N)=O)C3=C(C(=O)C(C)=C(N)C3=O)N1C[C@@H]1N[C@@H]12	0.775
CO/N=C(\C(=O)N[C@@H]1C(=O)N2C(C(=O)[O-])=C(C[N+]3(C)CCCC3)CS[C@H]12)c1csc(N)n1 [Cefepime] + CO[C@@]12[C@H](COC(N)=O)C3=C(C(=O)C(C)=C(N)C3=O)N1C[C@@H]1N[C@@H]12	0.749
CC1(C)S[C@@H]2[C@H](NC(=O)[C@H](N)c3ccc(O)cc3)C(=O)N2[C@H]1C(=O)O [Amoxicillin] + CO[C@@]12[C@H](COC(N)=O)C3=C(C(=O)C(C)=C(N)C3=O)N1C[C@@H]1N[C@@H]12 [Mitomycin C]	0.714
